# experimental-details: Evaluation of metabolic stability in human liver microsomes
# Type: in vitro ADME
# settings: test compound 1 µM, human liver microsomes 0.5 mg/mL, 30 minutes at 37°C
So I've got a bunch of compounds here, and I need their Human metabolic stability Residual ratio (%) values.

I have this compound here, `C[C@@H](O)C(=O)N1C2CC(C2)[C@H](NS(C)(=O)=O)[C@@H]1Cc1cccc(-c2ccccc2)c1F` , and I need its recorded Human metabolic stability Residual ratio (%). 34%

I have this compound here, `[2H][C@](C)(O)C(=O)N1C2CC(F)(C2)[C@H](NS(C)(=O)=O)[C@@H]1Cc1cccc(-c2ccccc2)c1F` , and I need its recorded Human metabolic stability Residual ratio (%). 78%

I have this compound here, `[2H]C([2H])([2H])[C@@]([2H])(O)C(=O)N1C2CC(C2)[C@H](NS(C)(=O)=O)[C@@H]1Cc1cccc(-c2ccccc2)c1F` , and I need its recorded Human metabolic stability Residual ratio (%). 59%

I have this compound here, `C[C@@H](O)C(=O)N1C2CC(C2)[C@H](NS(C)(=O)=O)[C@@H]1Cc1cc(F)cc(-c2ccccc2)c1F` , and I need its recorded Human metabolic stability Residual ratio (%). 34%

I have this compound here, `[2H]C([2H])([2H])[C@@]([2H])(O)C(=O)N1C2CC(F)(C2)[C@H](NS(C)(=O)=O)[C@@H]1Cc1cc(F)cc(-c2ccccc2)c1F` , and I need its recorded Human metabolic stability Residual ratio (%). 70%

I have this compound here, `[2H][C@](C)(O)C(=O)N1C2CC(C2)[C@H](NS(C)(=O)=O)[C@@H]1Cc1cccc(-c2ccccc2)c1F` , and I need its recorded Human metabolic stability Residual ratio (%). 57%

I have this compound here, `C[C@@H](O)C(=O)N1C2CC(F)(C2)[C@H](NS(C)(=O)=O)[C@@H]1Cc1cc(F)cc(-c2ccccc2)c1F` , and I need its recorded Human metabolic stability Residual ratio (%). 38%

I have this compound here, `[2H][C@](C)(O)C(=O)N1C2CC(C2)[C@H](NS(C)(=O)=O)[C@@H]1Cc1cc(F)cc(-c2ccccc2)c1F` , and I need its recorded Human metabolic stability Residual ratio (%). 58%

I have this compound here, CCS(=O)(=O)NC1C(Cc2cc(F)cc(-c3ccccc3)c2F)N(C(=O)[C@@H](C)O)C2CC1(F)C2 (single isomer, unassigned) , and I need its recorded Human metabolic stability Residual ratio (%). 25%

I have this compound here, `[2H][C@](C)(O)C(=O)N1C2CC(F)(C2)[C@H](NS(C)(=O)=O)[C@@H]1Cc1cc(F)cc(-c2ccccc2)c1F` , and I need its recorded Human metabolic stability Residual ratio (%). 70%

I have this compound here, [2H]C([2H])([2H])C([2H])(O)C(=O)N1C2CC(F)(C2)C(NS(=O)(=O)CC)C1Cc1cc(F)cc(-c2ccccc2)c1F (single isomer, unassigned) , and I need its recorded Human metabolic stability Residual ratio (%). 52%

I have this compound here, `[2H]C([2H])([2H])[C@@]([2H])(O)C(=O)N1C2CC(F)(C2)[C@H](NS(C)(=O)=O)[C@@H]1Cc1cccc(-c2ccccc2)c1F` , and I need its recorded Human metabolic stability Residual ratio (%). 75%

I have this compound here, `C[C@@H](O)C(=O)N1C2CC(F)(C2)[C@H](NS(C)(=O)=O)[C@@H]1Cc1cccc(-c2ccccc2)c1F` , and I need its recorded Human metabolic stability Residual ratio (%). 49%

I have this compound here, `[2H]C([2H])([2H])[C@@]([2H])(O)C(=O)N1C2CC(C2)[C@H](NS(C)(=O)=O)[C@@H]1Cc1cc(F)cc(-c2ccccc2)c1F` , and I need its recorded Human metabolic stability Residual ratio (%). 59%
